Attribute: IC50
# assaySystem: BRD4 BD1 (Homo sapiens, UniProt O60885, Y390A)
# Construct: BRD4 (1-477) (Y97A) and (Y390A); made in house; host or cells: E. coli (pET15b vector)
# testDescription: TR-FRET binding assay, BRD4 BD1 (mutant protein)
# conditionDetails: BRD4 (1-477) mutant, 10 nM protein, read-out: pIC50 in the BRD4 BD1 assay (converted)
Counter-ions that a name gives are not always drawn.
endpoint: IC50

> print(dat)
                                    molecule                               assaysystem  endpoint    result
 1  COc1ccc(-c2cn(C)c(=O)c3cc(CN4CCN(S(C)(=O)=O)CC4)oc23)cc1OC [Example 1]  BRD4 BD1 (Homo sapiens, UniProt O60885, Y390A)      IC50  ≤ 100 nM
 2  CC(c1cc2c(=O)n(C)cc(-c3ccnc(OCC4CCOCC4)c3)c2o1)N1CCN(S(C)(=O)=O)CC1 (single isomer, unassigned) [Example 21a]  BRD4 BD1 (Homo sapiens, UniProt O60885, Y390A)      IC50  ≤ 100 nM
 3  CC(Nc1cc(-c2cn(C)c(=O)c3cc(CN4CCN(S(C)(=O)=O)CC4)oc23)ccn1)c1ccccc1 (stereo not drawn) [Example 14]  BRD4 BD1 (Homo sapiens, UniProt O60885, Y390A)      IC50  ≤ 100 nM
 4  C[C@@H]1CN(S(C)(=O)=O)CCN1Cc1cc2c(=O)n(C)cc(-c3ccncc3OCCF)c2o1 [Example 72]  BRD4 BD1 (Homo sapiens, UniProt O60885, Y390A)      IC50  ≤ 100 nM
 5  Cn1cc(-c2cccc(OCc3ccccc3)c2)c2oc(CN3CCN(S(C)(=O)=O)CC3)cc2c1=O [Example 3]  BRD4 BD1 (Homo sapiens, UniProt O60885, Y390A)      IC50  ≤ 100 nM
 6  CC(=O)N(C)c1cc(-c2cn(C)c(=O)c3cc(CN4CCN(S(C)(=O)=O)C[C@H]4C)oc23)ccn1 [Example 30]  BRD4 BD1 (Homo sapiens, UniProt O60885, Y390A)      IC50  ≤ 100 nM
 7  CC(=O)Nc1cncc(-c2cn(C)c(=O)c3cc(CN4CCN(S(C)(=O)=O)C[C@H]4C)oc23)c1 [Example 38]  BRD4 BD1 (Homo sapiens, UniProt O60885, Y390A)      IC50  ≤ 100 nM
 8  CC(=O)Nc1cc(-c2cn(C)c(=O)c3cc(CN4CC(C)N(S(C)(=O)=O)CC4C)oc23)ccn1 (stereo not drawn) [Example 96]  BRD4 BD1 (Homo sapiens, UniProt O60885, Y390A)      IC50  ≤ 100 nM
 9  CN1CCCN(Cc2cc3c(=O)n(C)cc(-c4ccncc4OCC4CC4)c3o2)CC1 [Example 56, hydrochloride]  BRD4 BD1 (Homo sapiens, UniProt O60885, Y390A)      IC50  ≤ 100 nM
10  C[C@@H]1CN(S(C)(=O)=O)CCN1Cc1cc2c(=O)n(C)cc(-c3cccc(NC(=O)CCCCN)c3)c2o1 [Example 64, hydrochloride]  BRD4 BD1 (Homo sapiens, UniProt O60885, Y390A)      IC50  ≤ 100 nM
11  Cn1cc(-c2ccncc2OCC2CC2)c2oc(CN3CCNC(=O)C3)cc2c1=O [Example 71, hydrochloride]  BRD4 BD1 (Homo sapiens, UniProt O60885, Y390A)      IC50  ≤ 100 nM
12  Cl.[2H]C([2H])([2H])n1cc(-c2ccnc(NC(C)=O)c2)c2oc(CN3CCN(S(C)(=O)=O)C[C@H]3C)cc2c1=O [Example 62]  BRD4 BD1 (Homo sapiens, UniProt O60885, Y390A)      IC50  ≤ 100 nM
13  CC(=O)Nc1cc(-c2cn(C)c(=O)c3cc(C(C)(C)N4CCN(S(C)(=O)=O)CC4)oc23)ccn1 [Example 65]  BRD4 BD1 (Homo sapiens, UniProt O60885, Y390A)      IC50  ≤ 100 nM
14  C[C@@H]1CN(S(C)(=O)=O)CCN1Cc1cc2c(=O)n(C)cc(-c3ccncc3OC[C@H]3CCO3)c2o1 [Example 42]  BRD4 BD1 (Homo sapiens, UniProt O60885, Y390A)      IC50  ≤ 100 nM
15  Cn1cc(-c2ccncc2NCC2CC2)c2oc(CN3CCN(S(C)(=O)=O)CC3)cc2c1=O [Example 39]  BRD4 BD1 (Homo sapiens, UniProt O60885, Y390A)      IC50  ≤ 100 nM
